study system: Stimulator of interferon genes protein (Mus musculus, UniProt Q3TBT3)
Sequence (Q3TBT3 whole entry): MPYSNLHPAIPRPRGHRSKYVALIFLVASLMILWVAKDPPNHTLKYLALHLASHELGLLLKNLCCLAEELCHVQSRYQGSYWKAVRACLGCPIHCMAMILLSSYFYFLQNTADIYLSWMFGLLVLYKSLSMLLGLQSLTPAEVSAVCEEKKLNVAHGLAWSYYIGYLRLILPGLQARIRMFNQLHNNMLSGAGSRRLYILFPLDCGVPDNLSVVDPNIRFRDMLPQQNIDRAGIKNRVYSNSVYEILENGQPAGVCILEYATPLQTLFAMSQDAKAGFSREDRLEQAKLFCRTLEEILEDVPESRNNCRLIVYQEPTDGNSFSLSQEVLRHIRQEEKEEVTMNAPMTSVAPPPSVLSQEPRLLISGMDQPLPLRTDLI
experimental readout: IC50 (nM)

{"substance smiles": "O=C(Nc1cc(F)c(F)cc1C(=O)O)c1ccc(-n2ccnc2)nn1", "observed value": 1870}
{"substance smiles": "O=C(Nc1cc(Cl)c(F)cc1C(=O)O)c1ccc(-n2cnc(F)c2)nn1", "observed value": 2510}

----------
Listed here are compounds together with their documented pEC50.
study system: Stimulator of interferon genes protein (Mus musculus)
method notes: Agonist activity at STING in mouse RAW-Lucia ISG-KO-STING cells harbouring SEAP reporter gene assessed as activation of cGAS-STING signaling pathway incubated for 24 hrs by QUANTI-Blue reagent based analysis
pEC50: −log10 of the molar value.

{"substance smiles": "O=C(Nc1cc(F)c(F)cc1C(=O)O)c1ccc(-n2ccnc2)nn1", "study system": "Stimulator of interferon genes protein (Mus musculus)", "pEC50": "< 4.00"}
{"substance smiles": "O=C(Nc1cc(Br)c(F)cc1C(=O)O)c1ccc(-n2cnc(F)c2)nn1", "study system": "Stimulator of interferon genes protein (Mus musculus)", "pEC50": "< 4.00"}
{"substance smiles": "O=C(Nc1cc(Cl)c(F)cc1C(=O)O)c1ccc(-n2cnc(F)c2)nn1", "study system": "Stimulator of interferon genes protein (Mus musculus)", "pEC50": "< 4.00"}
